- TARGET OR SYSTEM: mouse TIGIT expressed on cells (mouse) (UniProt P86176)
- Sequence (P86176 other isoform, or with tags, fused parts or gaps limits assumed, form in doubt): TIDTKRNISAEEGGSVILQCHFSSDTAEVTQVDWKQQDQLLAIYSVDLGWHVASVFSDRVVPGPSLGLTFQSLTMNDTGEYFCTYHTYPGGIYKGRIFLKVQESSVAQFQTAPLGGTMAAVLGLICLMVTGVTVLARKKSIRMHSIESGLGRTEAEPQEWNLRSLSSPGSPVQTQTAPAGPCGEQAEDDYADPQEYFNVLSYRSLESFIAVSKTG
- ASSAY SUMMARY: flow cytometry on HEK 293 cells expressing the target, MFI over parental HEK 293
OUTCOME MEASURE: FOB (Fold Over Background) (fold)
Express your answer in fold, writing the number without its unit.

As a guide, the following entries are already answered.
Clone 16D (antibody, V domains shown) VH: QVQLVQSGAEVKKPGSSVKVSCKASGGTFSDYPISWVRQAPGQGLEWMGGIIPIVGGANYAQKFQGRVTITADESTSTAYMELSSLRSEDTAVYYCTRQSTWHKLFGTDVWGQGTTVTVSS VL: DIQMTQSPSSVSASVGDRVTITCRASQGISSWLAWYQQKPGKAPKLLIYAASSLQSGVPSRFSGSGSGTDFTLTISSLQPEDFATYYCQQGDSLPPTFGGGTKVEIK    63
Clone 16C (antibody, V domains shown) VH: QVQLVQSGAEVKKPGSSVKVSCKASGGTFREYAISWVRQAPGQGLEWMGGIHPIFGTARYAQKFQGRVTITADESTSTAYMELSSLRSEDTAVYYCTRQSTWHKLYGTDVWGQGTTVTVSS VL: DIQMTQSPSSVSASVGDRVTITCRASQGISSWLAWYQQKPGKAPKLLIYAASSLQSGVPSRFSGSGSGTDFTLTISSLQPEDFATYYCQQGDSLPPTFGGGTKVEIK    99

Which FOB (Fold Over Background) is listed for Clone 25E (antibody, V domains shown) VH: QVQLVQSGAEVKKPGASVKVSCKASGYTFTSYAIAWVRQAPGQGLEWMGWISAYNGNTNYAQKLQGRVTMTTDTSTSTAYMELRSLRSDDTAVYYCARSGSSFWSGDVLGAFDIWGQGTMVTVSS VL: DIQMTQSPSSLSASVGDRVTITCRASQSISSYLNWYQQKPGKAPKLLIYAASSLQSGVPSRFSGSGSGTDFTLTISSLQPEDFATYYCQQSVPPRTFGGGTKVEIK ?
116

Value source: patent US20230050440A1
